Data credit: ChEMBL document CHEMBL4689842

Test system: U2OS
Assay Explanation: Multiplex assay against U2OS
Assay type: toxicity, cell-based
Cond: human, 12 h, 1 µM, compound concentration 1 uM, replicate 1
Give measured Population Mitotic Cells (%) for each item. Keep answers brief.
One number for each entry, in %.

>  <Molecular String>
COc1ccc(S(=O)(=O)N(CCO)c2ccccc2CN(C)C/C=C/c2ccc(Cl)cc2)cc1.O=P(O)(O)O

>  <Population Mitotic Cells (%)>
42

$$$$
>  <Molecular String>
CN[C@@H]1C[C@H]2O[C@@](C)([C@@H]1OC)n1c3ccccc3c3c4c(c5c6ccccc6n2c5c31)C(=O)NC4

>  <Population Mitotic Cells (%)>
46

$$$$
>  <Molecular String>
COc1ccc(-c2ccc3c(N4CCOCC4)nc(N4C[C@@H](C)O[C@@H](C)C4)nc3n2)cc1CO

>  <Population Mitotic Cells (%)>
63

$$$$

Batch of 2 compounds: report Population Mitotic Cells (%) for each.
1. S=C(NCCCc1c[nH]cn1)NCCCN(Cc1ccc(Cl)c(Cl)c1)c1ccc(Br)cn1
2. O=C(Cc1ccc(-c2ccc(OCCN3CCOCC3)cc2)cn1)NCc1ccccc1

[43, 47]

Answer for every listed entry: what is its Population Mitotic Cells (%)? The entries follow.
1. Cl.O=c1c2cccn2c2ccccc2n1CCCN1CCC(c2ccc(Cl)cc2)CC1
2. Cl.O=C(c1ccc(Nc2nccc(-c3cc4ccccc4s3)n2)cc1)N1CCC(N2CCCC2)CC1
3. CNC(=O)c1ccc(Nc2nc(OC3CCCC3)c3c(-c4ccc5nc(C)oc5c4)c[nH]c3n2)c(OC)c1

1: 46; 2: 68; 3: 63
